Provenance of the data: PubChem BioAssay

For each entry below, report its inhibition value.
molecular target: Dual specificity protein phosphatase 6 (Homo sapiens); experiment: DUSP6 inhibitors restoring Erk phosphorylation by chemical complementation, primary imaging in DUSP6-transfected HeLa (AID 609); settings: HeLa MKP-3 transfected, phospho-Erk imaging KS statistic; at 10 µM; active compounds read high; cells stimulated with TPA for 15 min;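 note: phospho-Erk level distribution per well compared with pooled transfected vehicle control wells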
Active and inactive are the calls of the source.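 Rule for the calls: active = compounds giving at least 50% inhibition in the cell-based MKP-3 phosphatase rescue imaging test; inactive = the rest.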

I would be grateful if you could share the reported inhibition for CC(O)Cn1cnc2c1c(=O)n(C)c(=O)n2C (centres undefined) .
15.3% (inactive)

Entry "CN=C1c2c(-c3ccccc3)c3cc(OC)ccc3n2CCN1C" has what inhibition?
-2.47% (inactive)

Param item = CC1=C(C(=O)Nc2ccccc2)C(c2ccncc2)C(C#N)=C(SCC(=O)NC(C)C)N1 (centres undefined) ; retrieve measured inhibition.
-1.12% (inactive)

inhibition lookup needed for "ONC(=Nc1ccccc1)C(=Nc1ccccc1)NO" , thanks.
17% (inactive)

Which inhibition value is on record for CCCOC(=O)CSC1=C(C#N)C(c2ccccc2OCC)C(C#N)C(=O)N1 (centres undefined) ?
7.48% (inactive)

Data request, read-out inhibition, for O=C(C1CC1(c1ccccc1)c1ccccc1)N1CCOCC1 (centres undefined)
-0.584% (inactive)

Field request: inhibition | item: "CCN(CC)CCn1c(O)c(N=O)c2ccccc21"
21% (inactive)

Query: inhibition; subject: "COc1ccc(-c2nnc3sc(-c4c(OC)cccc4OC)nn23)cc1"
-6.06% (inactive)

// lookup inhibition for "CC1(C)Cc2c(oc3ncn4ncnc4c23)CO1"
13.2% (inactive)

Request the reported inhibition associated with "Cc1cc(C)nc(N(C#N)CC(=O)N(c2ccccc2)C(C)C)n1"
-11% (inactive)

Name the recorded inhibition for "CCOC(=O)CCc1c(C)c(C#N)c2[nH]c3ccccc3n2c1=O" .
15.9% (inactive)

Dear colleague, I am looking for the recorded inhibition of the following molecule: "Cc1cc(O)c(C(C)C)cc1N=C1CSC(=O)N1"
12.8% (inactive)

I'd like to know its inhibition. The molecule in question is "CCc1nc(SCc2cccnc2)c(C#N)cc1C"
2.46% (inactive)

Recorded inhibition of CCC1CCCCN1c1nc(-c2cccc(OC)c2O)nc2ccccc12 (centres undefined) , please.
-8.76% (inactive)
